Entries and their measured ΔTm follow.
# Tgt: Aurora kinase A (Homo sapiens) (UniProt O14965)
# Test Context: Compound concentration 20.0 uM, Protein concentration 2.0 uM, Result type QC Liability
# Description: Thermal Shift Assay. Domain: start/stop: E122-S403
Provide only the numeric value, understood in °C.

// solved cases for ΔTm follow
{"Smiles Structure": "CNc1ncc2cc(-c3ccc(-c4ncccc4F)cc3Cl)c(=O)n(C[C@H]3OC[C@H](N)CO3)c2n1", "Unit Text": "°C", "ΔTm": 4.87}
{"Smiles Structure": "COc1cc2ncnc(N[C@H](C)c3ccccc3)c2cc1OC1CCN(S(C)(=O)=O)CC1", "Unit Text": "°C", "ΔTm": 0.05}
{"Smiles Structure": "C[C@H]1CN(C2COC2)CCN1c1ccc(Nc2cc(-c3ccnc(N4CCn5c(cc6c5CC(C)(C)C6)C4=O)c3CO)cn(C)c2=O)nc1", "Unit Text": "°C", "ΔTm": 1.75}
{"Smiles Structure": "N#Cc1c(SCc2csc(-c3ccc(Cl)cc3)n2)nc(N2CCCC2)c(C#N)c1-c1ccc(OCCO)cc1", "Unit Text": "°C", "ΔTm": -0.18}
{"Smiles Structure": "CNc1[nH]c(Nc2ccc(C(=O)N3CCOCC3)cc2OC)nc2ncc(Cl)c1-2", "Unit Text": "°C", "ΔTm": 1}
{"Smiles Structure": "CCc1c(-c2ccc3[nH]ncc3c2)cnc(N)c1-c1ccc(O)cc1", "Unit Text": "°C", "ΔTm": 3.28}

Hi! What's the reported ΔTm for CO[C@H]1CC[C@H](N(c2cc(F)c(Oc3ncc(Cn4nccn4)cc3C(F)(F)F)cc2C(=O)O)C(=O)[C@H]2CC[C@H](C)CC2)CC1 on Aurora kinase A (Homo sapiens) (UniProt O14965)?
-0.75

Hi! What's the reported ΔTm for CC(=O)Nc1ncc(CN2CCC[C@H](Cc3cc(C)nc(C)c3)C2)s1 on Aurora kinase A (Homo sapiens) (UniProt O14965)?
0.39

----------
# Tgt: Aurora kinase A (Homo sapiens) (UniProt O14965)
# Sequence (whole entry): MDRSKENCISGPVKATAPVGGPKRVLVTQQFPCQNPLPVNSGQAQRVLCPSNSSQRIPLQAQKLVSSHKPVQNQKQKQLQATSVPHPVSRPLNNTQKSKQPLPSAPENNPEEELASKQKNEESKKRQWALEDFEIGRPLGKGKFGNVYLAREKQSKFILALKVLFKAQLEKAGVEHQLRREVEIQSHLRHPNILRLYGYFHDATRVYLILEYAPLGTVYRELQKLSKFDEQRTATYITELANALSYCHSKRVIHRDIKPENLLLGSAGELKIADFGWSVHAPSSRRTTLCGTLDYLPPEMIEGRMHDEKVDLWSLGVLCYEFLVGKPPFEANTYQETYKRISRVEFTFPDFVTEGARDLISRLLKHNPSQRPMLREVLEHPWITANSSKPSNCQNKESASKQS
# Test Context: Compound concentration 20.0 uM, Protein concentration 2.0 uM, Result type QC Liability
// No strictly below 0.5 °C in ΔTm; Yes otherwise

{"Smiles Structure": "Nc1ncc2c(n1)-c1c([nH]c3ccc(C4=CCOCC4)cc13)CCC2", "Tgt": "Aurora kinase A (Homo sapiens) (UniProt O14965)", "Class Name": "Yes"}

Quick check, ΔTm >= 0.5 °C? CC(C)(O)CNC(=O)N1C(=O)N(c2cccc(C(F)(F)F)c2)C2=C(C(=O)CC2)[C@@H]1c1ccc(C#N)cc1
No

Quick check, ΔTm >= 0.5 °C? O=C(Nc1ccc(OC(F)(F)Cl)cc1)c1cnc(N2CC[C@@H](O)C2)c(-c2cc[nH]n2)c1
No

Quick check, ΔTm >= 0.5 °C? CCCCC[C@H](O)/C=C/[C@H]1[C@H](O)CC(=O)[C@@H]1CCCCCCC(=O)O
No

----------
# Tgt: Aurora kinase A (Homo sapiens) (UniProt O14965)
# Sequence (whole entry): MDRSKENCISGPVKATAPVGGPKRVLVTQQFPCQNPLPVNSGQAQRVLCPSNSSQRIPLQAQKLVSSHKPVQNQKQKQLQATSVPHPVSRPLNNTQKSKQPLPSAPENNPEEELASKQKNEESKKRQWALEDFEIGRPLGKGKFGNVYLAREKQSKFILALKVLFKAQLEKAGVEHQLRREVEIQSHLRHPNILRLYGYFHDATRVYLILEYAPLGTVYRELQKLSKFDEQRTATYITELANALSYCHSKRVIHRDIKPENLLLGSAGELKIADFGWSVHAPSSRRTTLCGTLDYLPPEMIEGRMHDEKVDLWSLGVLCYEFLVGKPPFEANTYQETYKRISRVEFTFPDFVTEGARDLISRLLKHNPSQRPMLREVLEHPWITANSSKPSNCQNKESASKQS
# Test Context: Compound concentration 20.0 uM, Protein concentration 2.0 uM, Result type QC Liability
Property: ΔTm (°C)
Provide only the numeric value, understood in °C.

Give the measured ΔTm of CCOc1ccc(S(=O)(=O)Nc2ccc(Cl)cc2C#Cc2cnc(C(=O)O)cc2OC)c2ncccc12 .
-2.25

Give the measured ΔTm of CCc1nc(-c2cccc(C)c2)c(-c2ccnc(NC(=O)c3ccccc3)c2)s1 .
-1.25

----------
Entries and their measured ΔTm follow.
# Tgt: Casein kinase I isoform delta (Homo sapiens)
# Test Context: Compound concentration 20.0 uM, Protein concentration 2.0 uM, Result type QC Liability
# Description: Thermal Shift Assay. Domain: start/stop: M1-K294
Provide only the numeric value, understood in °C.

{"Compound": "NCC1CCC(CNc2nc(NCc3ccccc3OC(F)(F)F)ncc2[N+](=O)[O-])CC1 (stereo unspecified)", "Unit Text": "°C", "Val": 0.19}
{"Compound": "Cc1ccc2c(NS(=O)(=O)c3ccccc3Cl)cccc2c1Oc1ncccc1-c1ccnc(N[C@H]2CCCNC2)n1", "Unit Text": "°C", "Val": 0.45}
{"Compound": "CN(C)CCC[C@@]1(c2ccc(F)cc2)OCc2cc(C#N)ccc21", "Unit Text": "°C", "Val": -0.32}
{"Compound": "COc1cc2nc([C@@H]3CCCS(=O)(=O)C3)n(C)c2cc1NC(=O)c1cccc(C(C)(F)F)n1", "Unit Text": "°C", "Val": 0.86}
{"Compound": "Cc1csc(-c2nnc(Nc3ccc(Oc4ncccc4-c4ccnc(N)n4)cc3)c3ccccc23)c1", "Unit Text": "°C", "Val": 0.58}

Now, please, on to the next compound.
Give the measured ΔTm of CCCCCCC(Sc1nc(Cl)cc(NCc2ccc(-c3ccccc3)cc2)n1)C(=O)O (stereo unspecified) .
0

----------
# Tgt: Glycogen synthase kinase-3 beta (Homo sapiens) (UniProt P49841)
# Sequence (P49841 whole entry, looked up): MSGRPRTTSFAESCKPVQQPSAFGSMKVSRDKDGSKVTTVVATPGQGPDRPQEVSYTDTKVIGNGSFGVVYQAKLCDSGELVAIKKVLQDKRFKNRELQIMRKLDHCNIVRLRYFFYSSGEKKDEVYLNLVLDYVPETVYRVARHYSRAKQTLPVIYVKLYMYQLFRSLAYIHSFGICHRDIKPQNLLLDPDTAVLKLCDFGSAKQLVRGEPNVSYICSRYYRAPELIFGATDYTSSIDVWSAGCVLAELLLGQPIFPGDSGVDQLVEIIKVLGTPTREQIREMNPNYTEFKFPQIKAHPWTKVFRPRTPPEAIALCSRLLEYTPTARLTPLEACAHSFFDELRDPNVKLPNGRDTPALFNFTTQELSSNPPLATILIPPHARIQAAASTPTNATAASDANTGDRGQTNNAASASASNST
# Test Context: Compound concentration 20.0 uM, Protein concentration 2.0 uM, Result type QC Liability
# Description: Thermal Shift Assay. Domain: start/stop: M26-R383
Definition: the class of an entry is the range in band A: < -0.8 °C; band B: ≥ -0.8 °C and < 0.5 °C; band C: ≥ 0.5 °C that contains its ΔTm.

{"Compound": "CN(C)c1ccc(-c2cc3ncccc3c(OCCCCO)n2)cc1", "Class Name": "band B"}

Just checking, what class would you give Oc1c(-c2cccnc2)cnn1-c1ccccn1 here?
band B

Just checking, what class would you give CNc1ncc2cc(-c3ccc(-c4cccc(C)n4)cc3Cl)c(=O)n(C[C@H]3OC[C@H](N)CO3)c2n1 here?
band B

Just checking, what class would you give COc1ccccc1-c1cc(Nc2cccc(CS(N)(=O)=O)c2)ncn1 here?
band C

Just checking, what class would you give Cc1nn(C)c(COc2ccc(N3CCN(S(=O)(=O)N(C)C)CC3)cc2)c1-c1cccc2c(CCCOc3cccc4ccccc34)c(C(=O)O)n(CCN3CCOCC3)c12 here?
band B

Just checking, what class would you give C[C@H](CCC(=O)O)[C@H]1CC[C@H]2[C@@H]3CC[C@@H]4C[C@H](O)CC[C@]4(C)[C@H]3C[C@H](O)[C@]12C here?
band B

Just checking, what class would you give CCS(=O)(=O)c1ccc(OC)c(Nc2ncc(-c3cccc(F)c3)o2)c1 here?
band A

----------
# Tgt: Tyrosine-protein kinase ABL1 (Homo sapiens) (UniProt P00519)
# Sequence (P00519 whole entry): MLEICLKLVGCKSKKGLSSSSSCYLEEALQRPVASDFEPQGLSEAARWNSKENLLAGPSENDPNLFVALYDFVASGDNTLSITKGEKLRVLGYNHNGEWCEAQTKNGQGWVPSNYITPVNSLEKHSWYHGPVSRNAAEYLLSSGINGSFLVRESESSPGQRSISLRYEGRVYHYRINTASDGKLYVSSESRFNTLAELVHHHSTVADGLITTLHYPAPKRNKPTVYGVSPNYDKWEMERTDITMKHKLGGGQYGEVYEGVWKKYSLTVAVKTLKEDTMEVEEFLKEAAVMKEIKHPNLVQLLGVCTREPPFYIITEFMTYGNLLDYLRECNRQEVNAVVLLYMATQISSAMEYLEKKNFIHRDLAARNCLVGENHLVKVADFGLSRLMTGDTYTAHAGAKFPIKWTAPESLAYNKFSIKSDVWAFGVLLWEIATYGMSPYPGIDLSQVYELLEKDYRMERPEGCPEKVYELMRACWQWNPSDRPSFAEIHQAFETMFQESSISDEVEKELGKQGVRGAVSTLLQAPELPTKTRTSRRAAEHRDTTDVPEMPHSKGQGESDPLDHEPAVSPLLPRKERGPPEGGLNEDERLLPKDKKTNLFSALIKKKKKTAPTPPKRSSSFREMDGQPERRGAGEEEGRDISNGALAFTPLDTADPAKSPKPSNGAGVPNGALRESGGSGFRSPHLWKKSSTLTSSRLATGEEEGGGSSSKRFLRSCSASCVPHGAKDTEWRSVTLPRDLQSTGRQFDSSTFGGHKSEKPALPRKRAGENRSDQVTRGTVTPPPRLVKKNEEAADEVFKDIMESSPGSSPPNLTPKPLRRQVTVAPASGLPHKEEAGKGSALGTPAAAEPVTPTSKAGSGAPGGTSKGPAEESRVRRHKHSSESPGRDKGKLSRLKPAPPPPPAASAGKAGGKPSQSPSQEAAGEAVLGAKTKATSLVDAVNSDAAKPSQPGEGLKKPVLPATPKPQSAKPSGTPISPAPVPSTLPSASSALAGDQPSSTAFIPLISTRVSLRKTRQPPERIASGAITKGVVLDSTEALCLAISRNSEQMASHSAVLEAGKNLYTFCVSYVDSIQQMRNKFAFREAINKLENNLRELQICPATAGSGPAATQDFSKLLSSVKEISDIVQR
# Test Context: Compound concentration 20.0 uM, Protein concentration 2.0 uM, Result type QC Liability
# Description: Thermal Shift Assay. Domain: start/stop: S229-K512
Labelling field: enter Met if recorded ΔTm is less than 4 °C. Enter Not met if it equals or exceeds that cut-off.

{"Compound": "CN(C)C(=O)c1cc2cnc(Nc3ccc(N4CCN(CCCCNC(=O)COc5cccc6c5C(=O)N(C5CCC(=O)NC5=O)C6=O)CC4)cn3)nc2n1C1CCCC1 (stereo not drawn)", "Class Name": "Met"}
{"Compound": "Cc1cc2nc(N3CCC(C(=O)NC4CCCC4)CC3)n(C(C)C)c2cc1C", "Class Name": "Met"}
{"Compound": "NCCCc1c(C(=O)O)[nH]c2ccc(C(=O)Nc3ccccc3)cc12", "Class Name": "Met"}
{"Compound": "C=CC(=O)Nc1ccc(C(=O)Nc2[nH]nc3c2CN(C(=O)N[C@H](CN(C)C)c2ccccc2)C3(C)C)cc1", "Class Name": "Not met"}
{"Compound": "O=C(O)[C@]1(Cc2cccc(Nc3nccs3)n2)CC[C@@H](Oc2cccc(Cl)c2F)CC1", "Class Name": "Not met"}

Dear reviewer, please state whether CC(=O)N1CCN([C@H]2CCC[C@@H](NC(=O)c3cc4c(F)ccc(C)c4[nH]3)C2)CC1 has ΔTm strictly beneath 4 °C.
Met

Dear reviewer, please state whether CNc1ncc2cc(-c3ccc(-c4ncccc4F)cc3Cl)c(=O)n(C[C@H]3OC[C@H](N)CO3)c2n1 has ΔTm strictly beneath 4 °C.
Not met

Dear reviewer, please state whether Cc1cc(OC2CCS(=O)(=O)CC2)cc(C)c1-c1cccc(COc2ccc(C(=O)O)c(F)c2)c1 has ΔTm strictly beneath 4 °C.
Met

From: ChEMBL document CHEMBL5308504
